Recorded values, source patent EP0536424A1.

# Tested on: coronary blood flow rate
# Experiment Notes: Action on the coronary blood flow rate in dog (anesthetized, left coronary artery perfused with femoral arterial blood)
# Type: in vivo
# Condition: time during which the compound produced at least 50% of its efficacy at the ED₅₀ dosage; administered into the coronary artery
Reported Durationng values follow for various compounds
Measured Endpoint: Durationng (minuted)

[[record]]
compound = "CC1(C)Oc2ccc(C#N)cc2[C@@H](N2CCCC2=O)[C@@H]1O [Reference Compound A, Lema Kalin, reference compound]"
obs_value = 2.5

[[record]]
compound = "CC1(C)Oc2ccc(C#N)cc2[C@@H](NC(=NC#N)c2ccccc2)[C@@H]1O (relative stereo) [Reference Compound B, reference compound]"
obs_value = 1.9

[[record]]
compound = "CC1(C)Oc2ccc(C#N)cc2[C@@H](NC(=NC#N)c2ccc(F)cc2)[C@@H]1O (relative stereo)"
obs_value = 2.5

[[record]]
compound = "CC1(C)Oc2ccc(C#N)cc2[C@@H](NC(=NC#N)c2cccnc2)[C@@H]1O (relative stereo)"
obs_value = 4.0

